For each of the compounds below, state its Population Mitotic Cells (%).
Test system: Fibroblast
test.method.notes: Multiplex assay against human fibroblast
Format: toxicity, cell-based
conditions.used: 24 h, 1 µM, compound concentration 1 uM, replicate 2
One number for each entry, in %.

Would you please look over these solved cases?
Inquiry: Short answer please: Population Mitotic Cells (%), Fibroblast, entry `COc1ccc2[nH]c(I)c(CCNC(C)=O)c2c1`
Reply text: 42

Inquiry: Short answer please: Population Mitotic Cells (%), Fibroblast, entry `O=c1nc2[nH]c3ccccc3nc-2c(=O)[nH]1`
Reply text: 63

Inquiry: Short answer please: Population Mitotic Cells (%), Fibroblast, entry `CC(F)(F)CN1CCOc2c(nn(-c3ccccc3Cl)c2-c2ccc(Cl)cc2)C1=O`
Reply text: 36

Inquiry: Short answer please: Population Mitotic Cells (%), Fibroblast, entry `CN1CCN(c2ccc(Nc3c4ccccc4nc4ccccc34)cc2)CC1.Cl.Cl.O`
Reply text: 40

Inquiry: Short answer please: Population Mitotic Cells (%), Fibroblast, entry CN(C)C/C=C/C(=O)Nc1ccc(C(=O)N2CCCC(Nc3ncc(Cl)c(-c4c[nH]c5ccccc45)n3)C2)cc1 (stereo not drawn)
Reply text: 62

Inquiry: Short answer please: Population Mitotic Cells (%), Fibroblast, entry `COc1cc(C(=O)N2CC[C@@H](O)[C@@H](N)C2)cc2nc(-c3cc4ccccc4n3CC3CC3)n(C)c12.Cl`
Reply text: 39

Inquiry: Short answer please: Population Mitotic Cells (%), Fibroblast, entry O=C(O)CCC/C=C\CC1C(O)CC(O)C1/C=C/C(O)COc1cccc(Cl)c1 (stereo not drawn)
Reply text: 81

Turning now to a further compound:
Inquiry: Short answer please: Population Mitotic Cells (%), Fibroblast, entry CN1C[C@H](C(=O)N[C@]2(C)O[C@@]3(O)[C@@H]4CCCN4C(=O)[C@H](Cc4ccccc4)N3C2=O)C[C@@H]2c3cccc4[nH]cc(c34)C[C@H]21.CS(=O)(=O)O [DIHYDROERGOTAMINE MESYLATE]
Reply text: 52
